Test system: COLO 205
Test: NCI tumour cell line growth inhibition, 48 h
Active and inactive are the calls of the source. Cut-off read from the data, not from the text of the source: active = GI50 up to about 1.1 µM and inactive = higher.
Classes used: label 1 = active, label 0 = inactive

Compound	Class label
COc1ccc(CC2NCCc3cc(OC)c(OC)cc32)cc1Br (stereo unspecified)	label 0
O=c1[nH]nc(-c2cccc([N+](=O)[O-])c2)[nH]1	label 0
COC(=O)C1CC(=O)O[C@H]1c1ccc(OC)c(OC)c1 (stereo partly specified)	label 0
CCN(CC)C(=O)C1=C(C)NC(C)=C(C(=O)N(CC)CC)C1	label 0
C=CCOC1=C2CC[C@H](O)[C@@]2(C)CCC1=O	label 0
CN(C)c1ccc(/C=C(\NC(=O)c2ccccc2)C(=O)NC(CCC(=O)O)C(=O)O)cc1 (stereo unspecified)	label 0
COc1ccc2nc3c(nc2c1)C(C)(C)C=C3c1ccc(Br)cc1	label 0
CC(=O)OCC1OC(n2c(=S)n(-c3ccccc3)c(=O)c3cc(Br)ccc32)C(OC(C)=O)C(OC(C)=O)C1OC(C)=O (stereo unspecified)	label 0
C=C1CCC(CC[C@@H]2CC[C@]3(OC2)O[C@@]2(O)CC[C@]3(C)OC2(C)C)C(C)(C)[C@H]1C/C=C1/C(=O)OC[C@@H]1O (stereo partly specified)	label 0
c1cc(CSSCc2ccncc2)ccn1	label 0
CSC1=N/C(=C\c2ccco2)C(=O)N1CN1CCOCC1	label 0
CC(C)(C)[Si](C)(C)OCC1OC(n2cnc3c(=O)[nH]c(N)nc32)C(O[Si](C)(C)C(C)(C)C)C1O[Si](C)(C)C(C)(C)C (stereo unspecified)	label 0
Cc1ccc(NCCN(C)C)c2c(=O)c3cc(O)ccc3sc12	label 0
COC(=O)CCC1CCc2c(OC)ccc(OC)c2C1=O (stereo unspecified)	label 0
CCn1cc(C(=O)O)c(=O)c2cc3c(cc21)S(=O)(=O)CC3	label 0
Cc1cc(C(=O)CSC(=S)SC(C)(C)C)ccc1Cl	label 0
O=C(C=P(c1ccccc1)(c1ccccc1)c1ccccc1)c1ccc(-c2cccs2)cc1	label 1
C=C(C(=O)O)[C@@H]1C[C@@H]2O[C@H]1CC(C)=CCC/C(C)=C/CC[C@@]2(C)O	label 0
O=c1[nH]cnc2sc(=S)c3c(c12)CCC3	label 0
CCN(CC)CC(=O)NC1c2ccccc2Oc2c(C)cccc21 (stereo unspecified)	label 0
Fc1ccccc1/N=c1\oc2ccc(Br)cc2cc1-c1nc2ccccc2[nH]1	label 0

* * *

Reported values of GI50 for individual entries
Tested on: SF-539
Experiment: NCI tumour cell line growth inhibition, 48 h
The source made the active and inactive calls. Cut-off read from the data, not from the text of the source: active = GI50 up to about 1.1 µM and inactive = higher.

Compound	Assay system	GI50
O=C1CC(Br)c2c(Cl)sc(Cl)c21 (configuration not stated)	SF-539	8.3 µM (inactive)
CO[C@H]1C[C@H](n2cc(C)c(=O)[nH]c2=O)O[C@@H]1CO	SF-539	> 100 µM (inactive)
CC(C)(C)[Si](C)(C)OCC1OC(n2cnc3c(=O)[nH]c(N)nc32)C(O[Si](C)(C)C(C)(C)C)C1O[Si](C)(C)C(C)(C)C (configuration not stated)	SF-539	2.17 µM (inactive)
O=C(O)c1ccc(Nc2nc3ccccc3nc2-c2cccs2)cc1	SF-539	> 100 µM (inactive)
C[n+]1c2ccccc2n2c3ccccc3c(NCc3ccco3)c(C#N)c21	SF-539	0.959 µM (active)
Oc1cc(-c2ccccn2)nc2ccc(Cl)cc12	SF-539	31.8 µM (inactive)
O=[S@@]1Nc2ccc(Br)cc2S1	SF-539	3.94 µM (inactive)
c1ccc(-c2sc(-c3ccccc3)c3c2C2CCC3C2)cc1	SF-539	26 µM (inactive)
CC1(c2ccc(F)cc2)CC(c2ccc(F)cc2)=C(C#N)C(=C(C#N)C#N)N1 (configuration not stated)	SF-539	25.7 µM (inactive)
O=C(O)c1c(CC(Cc2ccc3c(c2)CCCC3)C(=O)O)ccc2c1CCCC2 (configuration not stated)	SF-539	> 100 µM (inactive)
CCN(CC)C(=O)C1=C(C)NC(C)=C(C(=O)N(CC)CC)C1	SF-539	> 100 µM (inactive)
O=C(O)/C(Cl)=C(/Cl)C(=O)Nc1cccc(Cl)c1	SF-539	17.6 µM (inactive)

* * *

Tested on: HCT-116
Assay: NCI tumour cell line growth inhibition, 48 h
Calls of active or inactive are those of the source. Cut-off read from the data, not from the text of the source: active = GI50 up to about 1.1 µM and inactive = higher.
Measured GI50 values are reported for all entries that follow.
Assay readout: GI50

Molecule	Value reported
CC1=Nn2c(nnc2-c2ccccc2Cl)NC(C)(C)C1	> 100 µM (inactive)
NCCCCNCCCN1CC1	2.42 µM (inactive)
CC1=NN(c2cccc(Cl)c2)C2(C1=Cc1ccccc1)C(Cl)C(=O)N2c1nc2ccccc2s1 (configuration not stated)	16.7 µM (inactive)
CN(C)CCNC(=O)c1ccc(Cl)c2ccc(-c3ccccc3)nc12	1.88 µM (inactive)
COC(=O)C(C(=O)C(=O)Nc1cccc(O)c1)c1nc2ccc(Cl)cc2nc1O (configuration not stated)	> 100 µM (inactive)
CC1(C)/C(=N\NC(N)=O)C2CCC1C2 (configuration not stated)	> 100 µM (inactive)
C=CC/C=C/C/C=C/CCCCCCCc1cccc(O)c1C(=O)O	> 100 µM (inactive)

* * *

Each record here notes measured GI50.
Tested on: SK-MEL-2
Experiment: NCI tumour cell line growth inhibition, 48 h
Calls of active or inactive are those of the source. No stated cut-off is given here; in the data, active = GI50 up to about 1.1 µM and inactive = higher.
Assay readout: GI50

Compound	Assay readout	Value reported
NC(Cc1ccc2nc3c4ccccc4c(=O)cc-3oc2c1)C(=O)O (stereo not drawn)	GI50	53.3 µM (inactive)
CC1CNC(c2ccc(COc3ccc(C4=NC(C)CN4)cc3)cc2)=N1 (stereo not drawn)	GI50	18.6 µM (inactive)
CN(C)c1ccc(/C=C(\NC(=O)c2ccccc2)C(=O)NC(CCC(=O)O)C(=O)O)cc1 (stereo not drawn)	GI50	> 100 µM (inactive)
O=C(c1ccc(Cl)cc1)c1cnc(Nc2ccccc2Cl)s1	GI50	15.6 µM (inactive)
CCN(CC)CCOC(=O)Cc1cccc2c(=O)cc(-c3ccccc3)oc12	GI50	> 150 µM (inactive)
O=C(COc1ccccc1)NS(=O)(=O)c1ccccc1	GI50	> 100 µM (inactive)
COc1cc(C2c3cc4c(cc3C(=O)C3CCC(=O)N32)OCO4)cc(OC)c1O (stereo not drawn)	GI50	> 50 µM (inactive)
CC(=O)c1c(C)[n+]([O-])c2cc(Cl)c(Cl)cc2[n+]1[O-]	GI50	27.6 µM (inactive)

* * *

Tested on: CAKI-1
Assay: NCI tumour cell line growth inhibition, 48 h
Activity calls are given as the source filed them. Cut-off read from the data, not from the text of the source: active = GI50 up to about 1.1 µM and inactive = higher.
Outcomes: active, inactive

Compound	Class label
c1ccc(-c2sc(-c3ccccc3)c3c2C2CCC3C2)cc1	inactive
COc1ccc(CNc2nc(NCc3ccc(OC)c(OC)c3)nc(NC3CCCCC3)n2)cc1	inactive
CSC1=N/C(=C\c2ccco2)C(=O)N1CN1CCOCC1	inactive
O=C(O)/C=C/c1ccc(Oc2ccccc2C(=O)O)o1	inactive
O=[N+]([O-])c1cccc2nc3ccccc3c(NCCC[N+]3([O-])CCOCC3)c12	inactive
c1ccc(Nc2nnc(CCCCCCCCc3nnc(Nc4ccccc4)o3)o2)cc1	inactive
O=C(c1ccccc1)c1ccc2[nH]c(-c3c(Cl)c(Cl)c(Cl)c(Cl)c3C(=O)N/N=C/c3ccc(Cl)cc3)nc2c1	inactive
O=[N+]([O-])/C(C(Cl)=C(Cl)Cl)=C(/Nc1ccccc1)SCc1ccccc1	inactive
CC1(C)O[C@@H](CP(c2ccc3ccccc3c2)c2ccc3ccccc3c2)[C@H](CP(c2ccc3ccccc3c2)c2ccc3ccccc3c2)O1	inactive
N#CC(C#N)C1CN2CCC1CC2 (configuration not stated)	inactive
OC(c1ccc(F)cc1)(c1ccc(F)cc1)C1CC1	inactive
CCOC(=O)c1cc(C)nc2c1c(=O)n(-c1ccccc1)c(=O)n2CCCCN1CCN(c2ccccc2)CC1	inactive
O=c1cnc2cc3ccccc3cc2[nH]1	inactive
COc1ccc(N2C(=O)c3c(c4[nH]c5ccccc5c4c4ccc(C(C)(C)C)cc34)C2=O)cc1	inactive
COc1cc2c(c(OC)c1OC)-c1ccc(SC)c(=O)cc1C(CO)C2 (configuration not stated)	active
COc1cc2cc3c4c(cc(OC)c(OC)c4c2cc1OC)CCN3	inactive
Cn1c2c(c3ccccc31)CC(=O)N1CCCCC1C21OCCO1 (configuration not stated)	inactive
C[C@]12CC[C@@H]3c4ccc(OP(=O)(O)O)cc4CC[C@H]3[C@@H]1CCC2=O	inactive
C[C@@H](NS(=O)(=O)c1ccc(NC(=O)c2ccccc2)cc1)C(=O)O	inactive
O=C(O)C[n+]1cn(NC(=O)Cc2ccccc2)cn1	inactive
COc1cc(C(C)=O)cc(C(=O)N(C(C)C)C(C)C)c1[Si](C)(C)C	inactive
Clc1ccc(N/N=C(\c2ccccc2)c2ccccn2)nc1	active
